subject.of.test: RXRγ (UniProt P28705)
experiment.description: holoreceptor transactivation assay, RXRγ
protocol.conditions: NA = not active at all as an agonist, read-out: RXR Trans. EC50 γ
measured.parameter: EC50 (nM)

CCOc1cc2c(cc1\C(CC)=C(F)/C=C/C(C)=C/C(=O)O)C(C)(C)CCC2(C)C [Compound 2]
9

---

subject.of.test: UniProtKB P10276
Sequence (P10276 whole entry): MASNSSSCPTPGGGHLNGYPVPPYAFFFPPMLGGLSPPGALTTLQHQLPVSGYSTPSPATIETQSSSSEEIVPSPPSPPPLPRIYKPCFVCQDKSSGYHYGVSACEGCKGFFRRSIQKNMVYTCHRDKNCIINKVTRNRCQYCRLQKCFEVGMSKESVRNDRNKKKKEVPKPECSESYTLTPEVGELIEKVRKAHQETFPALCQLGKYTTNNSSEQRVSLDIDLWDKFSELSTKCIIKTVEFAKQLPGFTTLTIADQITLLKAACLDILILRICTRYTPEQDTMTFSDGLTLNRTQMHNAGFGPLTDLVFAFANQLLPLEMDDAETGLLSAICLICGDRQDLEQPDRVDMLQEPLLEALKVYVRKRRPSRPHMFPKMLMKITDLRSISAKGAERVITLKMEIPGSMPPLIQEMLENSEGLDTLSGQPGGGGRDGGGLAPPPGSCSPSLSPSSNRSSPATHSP
experiment.description: chimeric receptor transactivation assay, RARα
protocol.conditions: NA = not active at all as an agonist, read-out: RAR Trans. EC50 α
pEC50: −log10 of the molar value.
measured.parameter: pEC50

CCOc1cc2c(cc1\C(CC)=C(F)/C=C/C(C)=C/C(=O)O)C(C)(C)CCC2(C)C
7.43

---

Target sequence: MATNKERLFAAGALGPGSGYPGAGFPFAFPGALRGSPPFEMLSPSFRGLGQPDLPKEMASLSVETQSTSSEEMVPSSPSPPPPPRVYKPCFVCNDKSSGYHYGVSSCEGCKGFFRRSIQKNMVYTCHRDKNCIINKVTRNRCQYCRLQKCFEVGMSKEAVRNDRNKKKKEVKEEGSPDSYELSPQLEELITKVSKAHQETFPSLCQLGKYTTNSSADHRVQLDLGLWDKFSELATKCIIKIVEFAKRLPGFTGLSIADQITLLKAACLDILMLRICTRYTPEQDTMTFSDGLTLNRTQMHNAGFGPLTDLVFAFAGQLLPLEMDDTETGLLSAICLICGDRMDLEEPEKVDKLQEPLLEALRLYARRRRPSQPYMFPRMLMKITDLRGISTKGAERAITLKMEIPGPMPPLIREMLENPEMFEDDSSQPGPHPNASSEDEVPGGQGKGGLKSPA
measured.parameter: Ki

CCOc1cc2c(cc1\C(CC)=C(F)/C=C/C(C)=C/C(=O)O)C(C)(C)CCC2(C)C
1510 nM

---

subject.of.test: RARβ (Homo sapiens)
measured.parameter: Ki (nM)

CCOc1cc2c(cc1\C(CC)=C(F)/C=C/C(C)=C/C(=O)O)C(C)(C)CCC2(C)C
540

---

subject.of.test: RARβ (Homo sapiens, UniProt P10826)
experiment.description: chimeric receptor transactivation assay, RARβ
protocol.conditions: NA = not active at all as an agonist, read-out: RAR Trans. EC50 β
Sequence (P10826 183-417 limits assumed): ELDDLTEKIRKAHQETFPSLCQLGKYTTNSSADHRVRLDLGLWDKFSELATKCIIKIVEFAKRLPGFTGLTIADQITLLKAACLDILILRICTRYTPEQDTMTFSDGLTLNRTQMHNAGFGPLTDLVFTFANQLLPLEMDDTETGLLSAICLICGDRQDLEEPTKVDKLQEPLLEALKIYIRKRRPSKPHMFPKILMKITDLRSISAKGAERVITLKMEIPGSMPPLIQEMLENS
pEC50: −log10 of the molar value.
measured.parameter: pEC50

CCCOc1cc2c(cc1\C(C)=C(F)/C=C/C(C)=C/C(=O)O)C(C)(C)CCC2(C)C [Compound 4]
6.73
CCOc1cc2c(cc1\C(CC)=C(F)/C=C/C(C)=C/C(=O)O)C(C)(C)CCC2(C)C [Compound 2]
6.60
